Data provenance is ChEMBL document CHEMBL1154611.

target: UniProtKB Q12809; experiment: Inhibition of human ERG expressed in HEK cells at 300 uM; type: cell-based, HEK293; details: HEK cells expressing human ERG
Sequence (Q12809 whole entry): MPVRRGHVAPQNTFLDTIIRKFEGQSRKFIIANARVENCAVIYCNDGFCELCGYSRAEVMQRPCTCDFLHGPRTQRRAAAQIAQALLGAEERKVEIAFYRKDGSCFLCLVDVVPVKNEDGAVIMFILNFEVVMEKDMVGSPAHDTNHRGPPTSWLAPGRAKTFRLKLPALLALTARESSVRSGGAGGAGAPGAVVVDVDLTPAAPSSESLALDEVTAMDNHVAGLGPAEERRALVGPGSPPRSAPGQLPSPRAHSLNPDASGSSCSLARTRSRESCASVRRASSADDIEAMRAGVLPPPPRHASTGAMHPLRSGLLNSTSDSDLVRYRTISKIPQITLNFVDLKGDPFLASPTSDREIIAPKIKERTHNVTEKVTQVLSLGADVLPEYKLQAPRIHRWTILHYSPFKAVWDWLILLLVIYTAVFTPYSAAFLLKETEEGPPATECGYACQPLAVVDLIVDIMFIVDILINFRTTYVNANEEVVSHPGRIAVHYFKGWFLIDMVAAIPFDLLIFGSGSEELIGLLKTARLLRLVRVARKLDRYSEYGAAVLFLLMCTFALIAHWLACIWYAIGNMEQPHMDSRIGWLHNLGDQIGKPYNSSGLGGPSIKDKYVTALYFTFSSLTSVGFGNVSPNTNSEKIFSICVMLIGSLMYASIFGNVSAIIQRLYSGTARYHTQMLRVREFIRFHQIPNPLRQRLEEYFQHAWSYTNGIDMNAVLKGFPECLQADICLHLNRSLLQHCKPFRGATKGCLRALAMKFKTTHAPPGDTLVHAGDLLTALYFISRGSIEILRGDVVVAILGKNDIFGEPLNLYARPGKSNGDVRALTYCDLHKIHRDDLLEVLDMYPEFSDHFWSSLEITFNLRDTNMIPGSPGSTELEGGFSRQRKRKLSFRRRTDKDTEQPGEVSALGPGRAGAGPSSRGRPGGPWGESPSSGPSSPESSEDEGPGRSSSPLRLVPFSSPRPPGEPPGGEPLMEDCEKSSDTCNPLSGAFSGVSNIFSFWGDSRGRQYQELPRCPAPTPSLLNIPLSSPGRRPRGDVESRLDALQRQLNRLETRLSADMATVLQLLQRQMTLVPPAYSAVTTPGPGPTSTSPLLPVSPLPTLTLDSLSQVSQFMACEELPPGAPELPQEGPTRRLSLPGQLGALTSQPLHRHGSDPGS
Measurement name: inhibition at 300 µM (%)
Enter your answer as a number in %; do not include the unit.

1. CC[C@H]1OC(=O)[C@H](C)[C@@H](O[C@H]2C[C@@](C)(OC)CC(C)O2)[C@H](C)[C@@H](O[C@@H]2O[C@H](C)C[C@H](N(C)CC)[C@H]2O)C2(C)CC(C)=C(O2)[C@H](C)[C@@H](O)[C@H]1C (single isomer, unassigned) : 100
2. CC[C@H]1OC(=O)[C@H](C)[C@@H](O[C@H]2C[C@@](C)(OC)[C@@H](O)[C@H](C)O2)[C@H](C)[C@@H](O[C@@H]2O[C@H](C)C[C@H](N(C)C(C)C)[C@H]2O)[C@](C)(O)C[C@@H](C)[C@H](OCC(=O)Nc2ccncn2)[C@H](C)[C@@H](O)[C@]1(C)O : 60
3. CC[C@H]1OC(=O)[C@H](C)[C@@H](O[C@H]2C[C@@](C)(OC)[C@@H](O)[C@H](C)O2)[C@H](C)[C@@H](O[C@@H]2O[C@H](C)C[C@H](N(C)C(C)C)[C@H]2O)[C@](C)(O)C[C@@H](C)[C@H](OCC(=O)NCCO)[C@H](C)[C@@H](O)[C@]1(C)O : 68

In the following, a different molecule is considered.
Give the reported value of inhibition at 300 µM for this record: "CC[C@H]1OC(=O)[C@H](C)[C@@H](O[C@H]2C[C@@](C)(OC)[C@@H](O)[C@H](C)O2)[C@H](C)[C@@H](O[C@@H]2O[C@H](C)C[C@H](N(C)C(C)C)[C@H]2O)[C@](C)(O)C[C@@H](C)[C@H](OCC(=O)NCc2ccccc2)[C@H](C)[C@@H](O)[C@]1(C)O" 100
